# System: NCI-H1993
# assay protocol: relative viability (nuclei count vs DMSO), 5 days (fraction); higher = more cells survive
# condition set: first compound 0.1 µM
measured metric: relative viability
The reply should be a number, written without any unit.

Query :: Can you share its relative viability? I mean this compound: NC(=O)Nc1cc(-c2cccc(F)c2)sc1C(=O)N[C@H]1CCCNC1 [AZD7762] + N=C(N)NC(=N)NCCc1ccccc1 [Phenformin] (partner 250 µM)
Result :: 0.53

Query :: Can you share its relative viability? I mean this compound: NC(=O)Nc1cc(-c2cccc(F)c2)sc1C(=O)N[C@H]1CCCNC1 [AZD7762] + CC(=O)c1c(C)c2cnc(Nc3ccc(N4CCNCC4)cn3)nc2n(C2CCCC2)c1=O [Palbociclib] (partner 0.5 µM)
Result :: 0.709

Query :: Can you share its relative viability? I mean this compound: NC(=O)Nc1cc(-c2cccc(F)c2)sc1C(=O)N[C@H]1CCCNC1 [AZD7762] + Cc1nc(NC(=O)N2CCC[C@H]2C(N)=O)sc1-c1ccnc(C(C)(C)C(F)(F)F)c1 [Alpelisib] (partner 2 µM)
Result :: 0.651

* * *

relative viability by entry:
# System: NCI-H2170
# assay protocol: relative viability (nuclei count vs DMSO), 5 days (fraction); higher = more cells survive
# condition set: first compound 0.5 µM

Solved cases (2 shown):
CC1(C)CCC(c2ccc(Cl)cc2)=C(CN2CCN(c3ccc(C(=O)NS(=O)(=O)c4ccc(N[C@H](CCN5CCOCC5)CSc5ccccc5)c(S(=O)(=O)C(F)(F)F)c4)cc3)CC2)C1 [Navitoclax] + O=C(c1cc(Cc2n[nH]c(=O)c3ccccc23)ccc1F)N1CCN(C(=O)C2CC2)CC1 [Olaparib] (partner 8 µM): 0.56
CC1(C)CCC(c2ccc(Cl)cc2)=C(CN2CCN(c3ccc(C(=O)NS(=O)(=O)c4ccc(N[C@H](CCN5CCOCC5)CSc5ccccc5)c(S(=O)(=O)C(F)(F)F)c4)cc3)CC2)C1 [Navitoclax] + CS(=O)(=O)CCNCc1ccc(-c2ccc3ncnc(Nc4ccc(OCc5cccc(F)c5)c(Cl)c4)c3c2)o1 [Lapatinib] (partner 2 µM): 0.26

Query :: Lab note: need relative viability for CC1(C)CCC(c2ccc(Cl)cc2)=C(CN2CCN(c3ccc(C(=O)NS(=O)(=O)c4ccc(N[C@H](CCN5CCOCC5)CSc5ccccc5)c(S(=O)(=O)C(F)(F)F)c4)cc3)CC2)C1 [Navitoclax] + COc1cc2c(Oc3ccc(NC(=O)C4(C(=O)Nc5ccc(F)cc5)CC4)cc3F)ccnc2cc1OCCCN1CCOCC1 [Foretinib] (partner 0.25 µM) on NCI-H2170, anyone have it?
Result :: 0.955

* * *

# Test system: EKVX
# assay protocol: relative viability (nuclei count vs DMSO), 5 days (fraction); higher = more cells survive
# condition set: first compound 0.01 µM
measured metric: relative viability
The reply should be a number, written without any unit.

NC(=O)Nc1cc(-c2cccc(F)c2)sc1C(=O)N[C@H]1CCCNC1 [AZD7762] + CCNC(=O)c1noc(-c2cc(C(C)C)c(O)cc2O)c1-c1ccc(CN2CCOCC2)cc1 [Luminespib] (partner 0.01 µM): 0.827

Query :: Lab note: need relative viability for NC(=O)Nc1cc(-c2cccc(F)c2)sc1C(=O)N[C@H]1CCCNC1 [AZD7762] + COc1cccc2cc(-c3nc([C@H]4CC[C@H](C(=O)O)CC4)n4ncnc(N)c34)[nH]c12 [OSI-027] (partner 0.5 µM) on EKVX, anyone have it?
Result :: 0.726

Query :: Lab note: need relative viability for NC(=O)Nc1cc(-c2cccc(F)c2)sc1C(=O)N[C@H]1CCCNC1 [AZD7762] + CC1(C)CCC(c2ccc(Cl)cc2)=C(CN2CCN(c3ccc(C(=O)NS(=O)(=O)c4ccc(N[C@H](CCN5CCOCC5)CSc5ccccc5)c(S(=O)(=O)C(F)(F)F)c4)cc3)CC2)C1 [Navitoclax] (partner 0.5 µM) on EKVX, anyone have it?
Result :: 0.954

Query :: Lab note: need relative viability for NC(=O)Nc1cc(-c2cccc(F)c2)sc1C(=O)N[C@H]1CCCNC1 [AZD7762] + O=C(c1cc(Cc2n[nH]c(=O)c3ccccc23)ccc1F)N1CCN(C(=O)C2CC2)CC1 [Olaparib] (partner 8 µM) on EKVX, anyone have it?
Result :: 0.82

Query :: Lab note: need relative viability for NC(=O)Nc1cc(-c2cccc(F)c2)sc1C(=O)N[C@H]1CCCNC1 [AZD7762] + CS(=O)(=O)N1CCN(Cc2cc3nc(-c4cccc5[nH]ncc45)nc(N4CCOCC4)c3s2)CC1 [Pictilisib] (partner 1 µM) on EKVX, anyone have it?
Result :: 0.459

Query :: Lab note: need relative viability for NC(=O)Nc1cc(-c2cccc(F)c2)sc1C(=O)N[C@H]1CCCNC1 [AZD7762] + N=C(N)NC(=N)NCCc1ccccc1 [Phenformin] (partner 250 µM) on EKVX, anyone have it?
Result :: 0.194

* * *

# Test system: ABC-1
# assay protocol: relative viability (nuclei count vs DMSO), 5 days (fraction); higher = more cells survive
# condition set: first compound 0.8 µM
Quick rule for you: relative viability under 0.6 gets condition met, anything else gets condition not met.

Oc1nc(-c2ccc(C(F)(F)F)cc2)nc2c1CSCC2 [XAV939] + Cc1cc(Nc2cc(N3CCN(C)CC3)nc(Sc3ccc(NC(=O)C4CC4)cc3)n2)n[nH]1 [Tozasertib] (partner 0.1 µM): condition met
C=C1C(=O)O[C@@H](CCCCCCCC)[C@@H]1C(=O)O [C-75] + Cc1nc(Nc2ncc(C(=O)Nc3c(C)cccc3Cl)s2)cc(N2CCN(CCO)CC2)n1 [Dasatinib] (partner 0.075 µM): condition met
C=C1C(=O)O[C@@H](CCCCCCCC)[C@@H]1C(=O)O [C-75] + C[C@@H](Oc1cc(-c2cnn(C3CCNCC3)c2)cnc1N)c1c(Cl)ccc(F)c1Cl [Crizotinib] (partner 1 µM): condition not met

Query :: Regarding Oc1nc(-c2ccc(C(F)(F)F)cc2)nc2c1CSCC2 [XAV939] + Cc1nc(NC(=O)N2CCC[C@H]2C(N)=O)sc1-c1ccnc(C(C)(C)C(F)(F)F)c1 [Alpelisib] (partner 2 µM) , kindly confirm whether its relative viability is beneath 0.6.
Result :: condition not met

* * *

# Test system: HCC-44
# assay protocol: relative viability (nuclei count vs DMSO), 5 days (fraction); higher = more cells survive
# condition set: first compound 0.05 µM
relative viability by entry:
The reply should be a number, written without any unit.

Solved cases (4 shown):
CC1(C)CCC(c2ccc(Cl)cc2)=C(CN2CCN(c3ccc(C(=O)NS(=O)(=O)c4ccc(N[C@H](CCN5CCOCC5)CSc5ccccc5)c(S(=O)(=O)C(F)(F)F)c4)cc3)CC2)C1 [Navitoclax] + Nc1nc2[nH]cc(CCc3ccc(C(=O)N[C@@H](CCC(=O)O)C(=O)O)cc3)c2c(=O)[nH]1 [Pemetrexed] (partner 0.2 µM): 0.625
CC1(C)CCC(c2ccc(Cl)cc2)=C(CN2CCN(c3ccc(C(=O)NS(=O)(=O)c4ccc(N[C@H](CCN5CCOCC5)CSc5ccccc5)c(S(=O)(=O)C(F)(F)F)c4)cc3)CC2)C1 [Navitoclax] + N=C(N)NC(=N)NCCc1ccccc1 [Phenformin] (partner 250 µM): 0.185
CC1(C)CCC(c2ccc(Cl)cc2)=C(CN2CCN(c3ccc(C(=O)NS(=O)(=O)c4ccc(N[C@H](CCN5CCOCC5)CSc5ccccc5)c(S(=O)(=O)C(F)(F)F)c4)cc3)CC2)C1 [Navitoclax] + COc1cccc2cc(-c3nc([C@H]4CC[C@H](C(=O)O)CC4)n4ncnc(N)c34)[nH]c12 [OSI-027] (partner 0.5 µM): 0.627
CC1(C)CCC(c2ccc(Cl)cc2)=C(CN2CCN(c3ccc(C(=O)NS(=O)(=O)c4ccc(N[C@H](CCN5CCOCC5)CSc5ccccc5)c(S(=O)(=O)C(F)(F)F)c4)cc3)CC2)C1 [Navitoclax] + Nc1ncn([C@H]2C[C@H](O)[C@@H](CO)O2)c(=O)n1 [Decitabine] (partner 2 µM): 0.903

# context switch: different compound, same relative viability
Query :: Can you share its relative viability? I mean this compound: CC1(C)CCC(c2ccc(Cl)cc2)=C(CN2CCN(c3ccc(C(=O)NS(=O)(=O)c4ccc(N[C@H](CCN5CCOCC5)CSc5ccccc5)c(S(=O)(=O)C(F)(F)F)c4)cc3)CC2)C1 [Navitoclax] + NC(=O)Nc1cc(-c2cccc(F)c2)sc1C(=O)N[C@H]1CCCNC1 [AZD7762] (partner 0.2 µM)
Result :: 0.961

* * *

# Tested on: LC-2-ad
# assay protocol: relative viability (nuclei count vs DMSO), 5 days (fraction); higher = more cells survive
# condition set: first compound 0.04 µM
Quick rule for you: relative viability under 0.5 gets T, anything else gets F.

Solved cases (3 shown):
O=C(O)c1ccc(-c2c[nH]c3ncc(-c4ccccc4)cc23)cc1C1CCCC1 + COc1cccc2cc(-c3nc([C@H]4CC[C@H](C(=O)O)CC4)n4ncnc(N)c34)[nH]c12 [OSI-027] (partner 0.5 µM): F
O=C(O)c1ccc(-c2c[nH]c3ncc(-c4ccccc4)cc23)cc1C1CCCC1 + Cc1nc(NC(=O)N2CCC[C@H]2C(N)=O)sc1-c1ccnc(C(C)(C)C(F)(F)F)c1 [Alpelisib] (partner 2 µM): F
O=C(O)c1ccc(-c2c[nH]c3ncc(-c4ccccc4)cc23)cc1C1CCCC1 + CC(=O)Nc1cccc(-n2c(=O)n(C3CC3)c(=O)c3c(Nc4ccc(I)cc4F)n(C)c(=O)c(C)c32)c1 [Trametinib] (partner 0.02 µM): F

Read the next record carefully.
Query :: Regarding O=C(O)c1ccc(-c2c[nH]c3ncc(-c4ccccc4)cc23)cc1C1CCCC1 + CC(=O)c1c(C)c2cnc(Nc3ccc(N4CCNCC4)cn3)nc2n(C2CCCC2)c1=O [Palbociclib] (partner 0.5 µM) , kindly confirm whether its relative viability is beneath 0.5.
Result :: T
